Experiment: in vitro
Conditions: human, mt-4 cells
reported_metric: selectivity ratio

GET /values?readout=selectivity ratio&item= `CC(=O)Nc1ccc(O)cc1` ≤ 75
